Below: a set of entries, each annotated with reported TGI.
System: HOP-92 NSCLC
methodNotes: NCI tumour cell line growth inhibition, 48 h
readoutKind: TGI

>>> measured("O=c1cc(CNc2cc(F)cc(F)c2)c2ccc(I)cc2[nH]1")
"> 100 µM"
>>> measured("CC(C)=CCOc1cc(NC(=S)c2ccoc2C)ccc1Cl")
"> 100 µM"
>>> measured("CSc1nnc(CCSc2ccnc3c(C(F)(F)F)cccc23)o1")
"> 100 µM"
>>> measured("COc1ccc(C(=O)/C=C/c2ccc(Cl)cc2)cc1S(=O)(=O)Nc1c(N)nc(SC)[nH]c1=O")
"7.99 µM"
>>> measured("NC(=O)[C@H]1CCN(c2ncnc(N)c2F)C[C@@H]1N1CCC[C@@H](Nc2cc(Cl)cc(C(F)(F)F)c2)C1=O")
"40.7 µM"
>>> measured("O=C(CCN1CCCC1)Nc1ccc2c(NCc3ccc(F)cc3)c3ccccc3nc2c1")
"2.07 µM"
>>> measured("COc1cc(S(=O)(=O)Nc2ccc(-c3csc(N4C(=O)CSC4c4cccs4)n3)cc2)ccc1Cl (stereo unspecified)")
"> 100 µM"
>>> measured("O=C(O)c1c[nH]c2c(Sc3ccccc3)nccc2c1=O")
"> 100 µM"
>>> measured("N=C(N)c1nn(C2OC(CO)C(O)C2O)c2nc[nH]c(=O)c12 (stereo unspecified)")
"5.93 µM"
>>> measured("CCOC(=O)Cc1c[nH]c(=S)[nH]c1=O")
"> 100 µM"
>>> measured("COc1cc(NC(C)=O)c2[nH]c3c(C)cc(NC(C)=O)c(C)c3c2c1")
"> 100 µM"
